Reference source: paper PMC2948018

- assayTarget: T1, E-selectin extracellular domain (human, UniProt P16581 22-556)
- T1 sequence: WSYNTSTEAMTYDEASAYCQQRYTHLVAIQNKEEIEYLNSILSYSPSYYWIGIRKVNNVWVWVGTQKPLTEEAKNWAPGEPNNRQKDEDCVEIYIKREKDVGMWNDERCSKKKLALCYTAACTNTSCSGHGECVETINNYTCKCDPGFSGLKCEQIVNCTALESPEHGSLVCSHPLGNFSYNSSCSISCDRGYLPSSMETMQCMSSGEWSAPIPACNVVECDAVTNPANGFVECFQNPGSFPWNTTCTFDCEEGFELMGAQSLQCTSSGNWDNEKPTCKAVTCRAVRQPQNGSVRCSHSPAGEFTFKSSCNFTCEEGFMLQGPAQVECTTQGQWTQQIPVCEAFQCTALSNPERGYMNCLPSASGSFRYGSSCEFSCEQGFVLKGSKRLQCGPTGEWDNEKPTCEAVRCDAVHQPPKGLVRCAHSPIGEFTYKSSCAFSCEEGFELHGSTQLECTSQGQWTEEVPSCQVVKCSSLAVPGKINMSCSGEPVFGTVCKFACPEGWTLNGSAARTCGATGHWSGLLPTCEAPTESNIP
- procedureDetails: EMSA; 5 mM Mg2+, Ca2+; EMSA: PBS with Ca2+ and Mg2+, 5 mM MgCl2, 1% NP40, room temperature 45 min, 4.6 pmol ESTA-1 with 0-19 pmol selectin in 10.5 ul, 6% gel run at 4 C; cell binding: 20 min at 37 C; pH not stated
- measurementParameters: protein: commercial; label: none in EMSA (SYBR Gold stain); two hairpin loops (MFOLD)
reportedProperty: Kd (nM)
Answers are plain numbers, in nM.

Prompt line: Please look up its Kd: ESTA-1 (TA-1) (XNA, monothiophosphate (Rp) at all dA except 5' primer region) DNA: CGCTCGGATCGATAAGCTTCGATCCCACTCTCCCGTTCACTTCTCCTCACGTCACGGATCCTCTAGAGCACTG
Response line: 47
